- measurement target: human BRD4 bromodomain II (Homo sapiens)
- Construct: human BRD4 bromodomain II [based on Genbank NM_058243, residues 349-460]; host or cells: E. coli
- protocol notes: Bromodomain binding assay (AlphaScreen), BRD4 BDII
- experimental parameters: BRD4 BDII AlphaScreen assay; read-out: BRD4 BD2 IC50
pIC50: −log10 of the molar value.
Reported pIC50 values follow for various compounds

COc1ncc(-c2nc(C)cc(-c3ccc(-n4ccn(C)c4=O)c(Cl)c3)c2O)cc1N1CC[C@@]2(CCN2C(C)C)C1 [Example 1023]    9.00 to 11.00
Cn1ccn(-c2ccc(-c3cc(F)cc(-c4cccc(-c5cccc(O)c5)c4)c3O)cc2Cl)c1=O [Example 864]    7.00 to 8.00

Please look up its pIC50: Cc1cc(-c2ccc(-n3ccn(C)c3=O)c(Cl)c2)c(O)c(-c2cc(N3CCN(C(C)(C)C)CC3)c3nccn3c2)n1 [Example 989] 8.00 to 9.00

Please look up its pIC50: Cn1ccn(-c2ccc(-c3cc(F)cc(-c4cnc(N)c(N5CCN(C(C)(C)C)CC5)c4)c3O)cc2Cl)c1=O [Example 914] 8.00 to 9.00

Please look up its pIC50: CC(=O)Nc1cccc(-c2cc(F)cc(-c3cccc(N4CCNCC4)c3)c2O)c1Cl [Example 888] < 7.00
